Answer each item with its documented IC50.
system_tested: DR7 (DRB1*0701) (Homo sapiens, UniProt P01903+P01911, A100R/A102G/A103Q/D57E/D86V/E43K/F76Y/K127E/L162R/M171V/P40G/Q125H/Q99D/R33Q/R42Y/R54Q/S133A/S66F/T210M/V115G/Y107V/Y59L/Y89S)
assay_protocol: biochemical
Assay type: binding
No end group written: not given here.
Give bare numbers, in µM.

Please supply IC50 for each of the following items, keeping them in order.
1. IIHLKGDPNSLKCLR [Peptide 90.0228]
2. LKEFLKGTPKKNCIL [Peptide 89.0086]

Ans.
1. 2.54
2. 5.43

Values compiled from patent US9340577B2.
